// provenance: PubChem BioAssay

Molecular target: 6-phosphogluconate dehydrogenase, decarboxylating (Homo sapiens) (UniProt P52209)
Sequence (P52209 whole entry, looked up): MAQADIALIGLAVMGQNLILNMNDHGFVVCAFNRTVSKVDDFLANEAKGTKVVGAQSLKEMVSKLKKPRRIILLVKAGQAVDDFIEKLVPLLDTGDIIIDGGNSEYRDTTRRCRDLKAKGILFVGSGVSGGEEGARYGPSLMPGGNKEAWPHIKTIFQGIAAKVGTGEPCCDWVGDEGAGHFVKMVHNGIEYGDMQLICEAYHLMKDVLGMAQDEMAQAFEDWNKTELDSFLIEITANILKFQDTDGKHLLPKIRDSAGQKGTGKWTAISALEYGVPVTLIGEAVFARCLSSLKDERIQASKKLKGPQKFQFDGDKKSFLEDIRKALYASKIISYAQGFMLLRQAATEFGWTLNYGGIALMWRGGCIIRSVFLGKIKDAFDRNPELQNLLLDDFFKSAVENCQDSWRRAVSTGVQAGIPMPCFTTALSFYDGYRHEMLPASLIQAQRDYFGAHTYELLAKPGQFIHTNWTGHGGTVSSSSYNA
Assay: inhibition of human phosphogluconate dehydrogenase – biochemical, recombinant enzyme, NADPH absorbance, primary screen (AID 1159550)
Settings: recombinant 6PGD, NADPH absorbance 341 nm; at 10 µM; stronger effect = higher value
metric: inhibition (%)
Express the result in % but write the number alone.

Noted for CC(=O)[C@@]1(O)CC[C@H]2[C@@H]3C[C@H](C)C4=CC(=O)C=C[C@]4(C)[C@@]3(F)[C@@H](O)C[C@@]21C : its inhibition reads 15.2

So, COc1cc([C@H]2Oc3cc([C@H]4Oc5cc(O)cc(O)c5C(=O)[C@@H]4O)ccc3O[C@@H]2CO)ccc1O ? Its inhibition was 9.07

Recorded inhibition (compound OCc1ccccc1O ): -10.9

Memo: C[n+]1cc2c3c(ccc2c2ccc4cc5c(cc4c21)OCO5)OCO3 , reported inhibition: 11.1

For O=C(O)CCCCCCCC(=O)O the compound record lists inhibition as -2.42

inhibition reported for this compound NCCCC(=O)O : 15.9

COc1cc(NS(=O)(=O)c2ccc(N)cc2)ncn1 has a reported inhibition of -1.56

Note to self: inhibition recorded for c1ccc(CN(CC2=NCCN2)c2ccccc2)cc1 was -4.52

The recorded inhibition for entry O=c1oc2cc(O)ccc2s1 equals 11.7

So, CC(NCCC(c1ccccc1)c1ccccc1)c1ccccc1 (configuration not stated) ? Its inhibition was 4.5

The recorded inhibition for O=C(O)[C@@H](O)[C@H](O)[C@H](O)[C@@H](O)C(=O)O is 3.91

inhibition reported for this compound CCCCOc1cc(C(=O)NCCN(CC)CC)c2ccccc2n1 : -0.88

* * *

Experiment: HCT116 colon cancer cell growth inhibition, primary screen, CellTiter-Glo luminescence, NPC library (AID 1117342)
Details: at 20 µM (top of the series)
For each of the compounds below, state its inhibition of viability.
Respond with the bare value in %.

Per the records, this compound ( O=c1cc(CO)occ1O ) has inhibition of viability equal to -7

inhibition of viability measured on Nc1ccc(S(=O)(=O)Nc2ccnn2-c2ccccc2)cc1 = -9.2

Given item CCCN(CCC)C(=O)C(CCC(=O)O)NC(=O)c1ccccc1 (stereo unspecified) , the value recorded as its inhibition of viability is -4.15

// recorded inhibition of viability for CC(=O)O[C@H]1C[C@@H]2CC[C@@H]3[C@H](CC[C@@]4(C)[C@H]3C[C@H]([N+]3(C)CCCCC3)[C@@H]4OC(C)=O)[C@@]2(C)C[C@@H]1N1CCCCC1 : 3.2

Summary for this compound, O=C1N(c2ccccc2)c2ccccc2C1(Cc1ccncc1)Cc1ccncc1 : inhibition of viability is -4.7

inhibition of viability for CC(NCCC(c1ccccc1)c1ccccc1)c1ccccc1 (stereo unspecified) is 99.3

For reference, reported inhibition of viability for OCCOCCN1CCN(C2=Nc3ccccc3Sc3ccccc32)CC1 stands at 10.6

Recorded inhibition of viability (compound Cc1c(N(C)CS(=O)(=O)O)c(=O)n(-c2ccccc2)n1C ): 3

Notebook: CC1=CC(=O)c2ccccc2C1=O , inhibition of viability read as 37.5

# compound N#Cc1ccc(C(c2ccc(C#N)cc2)n2cncn2)cc1 ; its inhibition of viability = 9.8

// recorded inhibition of viability for CCn1cc(C(=O)O)c(=O)c2cc(F)c(N3CCNCC3)nc21 : -6.97

* * *

Assignment: determine reported viability for the given compounds.
Assay: drug combination growth inhibition, ovarian cancer – cell-based, oncology-focused library, rucaparib conditional, profiling panel (AID 1508598)
Settings: patient-derived ovarian cancer cells, CellTiter-Glo viability, 144 h; at 0.000305 µM; OCI-C5x cells; without rucaparib; stronger effect = lower value
Your answer should be a plain number; it is taken to be in %.

The compound NC(=O)NO showed viability equal to 113

Recorded result, COC(=O)Nc1nc2ccc(C(=O)c3cccs3)cc2[nH]1 , viability: 106

// viability lookup, compound = CC(c1cc2ccccc2s1)N(O)C(N)=O (stereo not drawn) , result: 124

Recorded result, Cc1cc2c(C(C)C)c(O)c(O)c(C=O)c2c(O)c1-c1c(C)cc2c(C(C)C)c(O)c(O)c(C=O)c2c1O , viability: 130

Entry under test: COc1ccccc1OCC(O)CN1CCN(CC(=O)Nc2c(C)cccc2C)CC1 (stereo not drawn) . Its viability was 113

Looking up O=NN(CCCl)C(=O)NC1CCCCC1 , I see its viability listed as 116

Lab note: measured viability of COc1cc2c(Nc3ccc(Br)cc3F)ncnc2cc1OCC1CCN(C)CC1 was 109

Cn1nnc2c(C(N)=O)ncn2c1=O has a reported viability of 108

# viability of CCC(C)n1ncn(-c2ccc(N3CCN(c4ccc(OC[C@H]5CO[C@](Cn6cncn6)(c6ccc(Cl)cc6Cl)O5)cc4)CC3)cc2)c1=O (stereo partly drawn) = 110

Recorded result, CN(Cc1cnc2nc(N)nc(N)c2n1)c1ccc(C(=O)N[C@@H](CCC(=O)O)C(=O)O)cc1 , viability: 111

Per the records, this compound ( O=c1c(O)c(-c2ccc(O)c(O)c2)oc2cc(O)cc(O)c12 ) has viability equal to 113

# viability of CCc1c2c(nc3ccc(OC(=O)N4CCC(N5CCCCC5)CC4)cc13)-c1cc3c(c(=O)n1C2)COC(=O)[C@]3(O)CC = 117

Form: compound = CC[C@@]1(O)C(=O)OCc2c1cc1n(c2=O)Cc2cc3c(CN(C)C)c(O)ccc3nc2-1 ; viability = 104

* * *

Test system: F380Y/beta2Delta
Test: BK channel mutant inhibitors and activators – cell-based, U2OS BacMam, thallium flux, beta subunits, selectivity assay, profiling panel (AID 1259406);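 also: initial slope of Thallos dye fluorescence rise after thallium is added; log ratio against the mean of 0.3% DMSO vehicle wells on the same plate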
Details: U2OS BacMam BK variants, at 30 µM
Calls of active or inactive are those of the source.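 The calls were made as follows: active = thallium flux through the channel raised or lowered by more than 3 SD from vehicle-only wells, actives on both sides; inactive = the rest.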
Thanks in advance; please answer with one of these: t = active, f = inactive

Qu. Could you check what this test reported for CCOc1cc(N)c(Cl)cc1C(=O)NCC1CN(Cc2ccc(F)cc2)CCO1 (stereo unspecified) ?
Ans. f

Qu. How did this test come out for CCC(=O)O[C@]1(C(=O)SCF)[C@H](C)C[C@H]2[C@@H]3C[C@H](F)C4=CC(=O)C=C[C@]4(C)[C@@]3(F)[C@@H](O)C[C@@]21C ?
Ans. f

Qu. Assay result, entry C#C[C@]1(O)CC[C@H]2[C@@H]3[C@H](C)CC4=C(CCC(=O)C4)[C@H]3CC[C@@]21C — outcome?
Ans. f

Qu. Per the records of this test, what outcome belongs to CC(c1cc2ccccc2s1)N(O)C(N)=O (stereo unspecified) ?
Ans. f

Qu. Per the records of this test, what outcome belongs to CC1(C)S[C@@H]2[C@H](N=CN3CCCCCC3)C(=O)N2[C@H]1C(=O)O ?
Ans. f

Qu. I would be grateful if you could indicate the recorded call for CNNCc1ccc(C(=O)NC(C)C)cc1 .
Ans. f

Qu. Lab log entry: CN(C/C=C/C#CC(C)(C)C)Cc1cccc2ccccc12 — outcome as called in the assay?
Ans. f

Qu. Give the logged outcome of this assay for the following compound: CCOC(=O)c1ncn2c1CN(C)C(=O)c1cc(F)ccc1-2
Ans. f

Qu. Dear all, I need the recorded test outcome for CC(Cc1ccccc1)(NC(=O)CN)c1ccccc1 (stereo unspecified) , thank you.
Ans. f

Qu. Hi, sorry to bother you, what did the test record for COC(=O)CCc1ccc(OCC(O)CNC(C)C)cc1 (stereo unspecified) ?
Ans. f

Qu. Look up the recorded call for CCCc1c(OCCCCc2nn[nH]n2)ccc(C(C)=O)c1O in this test.
Ans. t

* * *

Assay: polyglutamine aggregate formation blockers (AID 1604)
Conditions: polyglutamine-induced protein aggregation inhibition assay; stronger effect = higher value; concentration not given here
metric: inhibition of aggregation
Please provide the amount together with its unit, number first.

What the record says about CCN(CC)C(=O)c1cccc(C)c1 : inhibition of aggregation is 28.8%

# inhibition of aggregation (molecule: COc1ccc2cc3[n+](cc2c1OC)CCc1cc2c(cc1-3)OCO2 ) is 65.2%

The molecule listed as Cc1ccc(C(=O)C(C)CN2CCCCC2)cc1 (centres undefined) shows inhibition of aggregation equal to 37.2%

// recorded inhibition of aggregation for Fc1ccc(C(c2ccc(F)cc2)N2CCN(C/C=C/c3ccccc3)CC2)cc1 : 27%

According to the records, this molecule Cc1c(C(N)=O)cc([N+](=O)[O-])cc1[N+](=O)[O-] displays inhibition of aggregation of 82.7%

Entry under test: O=C(OCc1ccccc1)c1ccccc1 . Its inhibition of aggregation was 74%

What the record says about C[N+](C)(C)CCCCCC[N+](C)(C)C : inhibition of aggregation is 72.2%

The reported value for CCN(CC)CCNC(=O)c1cc(Cl)c(N)cc1OC in terms of inhibition of aggregation is 25.8%

Record CN1CCOC(c2ccccc2)c2ccccc2C1 (centres undefined) . Reported inhibition of aggregation: 74.7%

Input CN1CCC(=C2c3ccccc3Sc3ccccc32)CC1 . Output inhibition of aggregation: 88.8%

// inhibition of aggregation value for CC1(C)S[C@@H]2[C@H](NC(=O)C(C(=O)O)c3ccccc3)C(=O)N2[C@H]1C(=O)O (some centres undefined) : 60.9%

Value of measured inhibition of aggregation for the entry Cc1cc(-c2ccccc2)nnc1NCCN1CCOCC1 : 66.7%

Looking up CN1CCCN=C1COC(=O)C(O)(c1ccccc1)C1CCCCC1 (centres undefined) , I see its inhibition of aggregation listed as 60.8%

Just so you know, measured inhibition of aggregation for CN(C)CCC(c1ccccc1)c1ccccn1 (centres undefined) came out at -15.2%

Entry under test: Nc1ccc(S(=O)(=O)Nc2ccccn2)cc1 . Its inhibition of aggregation was 24.2%

inhibition of aggregation for O=C(O)P(=O)(O)O is 30.6%

Sure, the documented inhibition of aggregation for COc1ccc(CN(CCN(C)C)c2ccccn2)cc1 is 12.7%

What the record says about COc1ccc(C2C(=O)c3ccccc3C2=O)cc1 : inhibition of aggregation is 79.6%

Sample NC(=NCCCCCCN=C(N)/N=C(\N)Nc1ccc(Cl)cc1)/N=C(\N)Nc1ccc(Cl)cc1 ; inhibition of aggregation observed: 79.3%

The molecule CCN(CC)CCNC(=O)c1cc(S(C)(=O)=O)ccc1OC showed inhibition of aggregation equal to 79.2%

Quick note, inhibition of aggregation for O=C(O)c1cc(=O)c2ccccc2o1 landed at 87.2%

Form field inhibition of aggregation, entry CCCCCCOc1ccccc1C(N)=O : 67.5%

For CCC(=O)O[C@H]1[C@H](O[C@@H]2[C@@H](C)[C@H](O[C@H]3C[C@@](C)(OC)[C@@H](O)[C@H](C)O3)[C@@H](C)C(=O)O[C@H](CC)[C@@](C)(O)[C@H](O)[C@@H](C)C(=O)[C@H](C)C[C@@]2(C)O)O[C@H](C)C[C@@H]1N(C)C the molecule record lists inhibition of aggregation as 87.3%

Query NS(=O)(=O)c1cc(C(=O)O)c(NCc2ccco2)cc1Cl yields inhibition of aggregation of 3.24%
